Test system: SN12C renal
assay.name: NCI-60 one-dose screen, 48 h (100 = growth as untreated, 0 = no growth, -100 = all killed)
details: 10 µM unless noted
Compounds without any hit were thinned out: in the full panel of roughly 83,000, 20% have a hit.
The following compounds are listed with their measured growth values.
measured.attribute: growth (%)

>>> print(df.to_string())
                                   compound  measured_attribute  value_measured
0  COc1ccc(C(C)=C(c2ccc(OCCN3CCCCCC3)cc2)c2ccc(OCCN3CCCCCC3)cc2)cc1              growth           0.944
1  Clc1ccc2c(N/N=C/c3c[nH]c4ccccc34)ccnc2c1              growth           -77.2
2  C#CCOc1ccccc1/C=N/Nc1nc(-c2ccc(Cl)cc2)cs1              growth            93.8
3  Cn1cc(-c2nc(N)nnc2-c2c[nH]c3ccc(Br)cc23)c2cc(F)ccc21              growth             102
4  C/C(=C(/C)C1CC1CCNC1CCC(NC(=O)OC(C)(C)C)CC1)c1ccccc1 (stereo not given)              growth            76.2
5  C[C@H]1OCC2(CCN(c3cnc(C(=O)Nc4cc(F)cc5cccnc45)cn3)CC2)[C@H]1N              growth            46.5
6  CCOC(=O)c1c(NC(=O)c2cccc(C(F)(F)F)c2)sc2c3c(ccc12)OCN(C)C3              growth           -66.2
7  CCCc1[nH]c(-c2cc(N)ccc2Cl)c2c1C(=O)CCCC2              growth            92.1
8  C#CCOc1ccccc1C(OC(=O)c1ccccc1)C(=O)NC(C)(C)C(C)(C)C (stereo not given)              growth            95.7
9  O=S(=O)(Oc1ccc(-c2cn3ccoc3n2)cc1)C1CCCCC1              growth             103

These entries and their values trace back to PubChem BioAssay (NCI).
